Provenance of the data: patent US20220025021A1

biological target: HIV-1 Env of pseudovirus CNE52 (HIV-1); experiment: cell-based or functional assay
neutralization IC80: recorded values

Solved entries:
[[record]]
binder = "MS-87 (antibody, V domains shown) VH: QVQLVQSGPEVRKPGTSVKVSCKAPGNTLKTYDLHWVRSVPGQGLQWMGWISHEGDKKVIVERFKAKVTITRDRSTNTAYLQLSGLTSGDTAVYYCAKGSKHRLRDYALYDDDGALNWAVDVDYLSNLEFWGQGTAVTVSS VL: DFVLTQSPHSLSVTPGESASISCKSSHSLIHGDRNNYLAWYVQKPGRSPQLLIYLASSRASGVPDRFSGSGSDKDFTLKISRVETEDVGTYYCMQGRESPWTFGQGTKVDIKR"
observable = "neutralization IC80"
test_result = "> 25 µg/mL"

[[record]]
binder = "MS-75 (antibody, V domains shown) VH: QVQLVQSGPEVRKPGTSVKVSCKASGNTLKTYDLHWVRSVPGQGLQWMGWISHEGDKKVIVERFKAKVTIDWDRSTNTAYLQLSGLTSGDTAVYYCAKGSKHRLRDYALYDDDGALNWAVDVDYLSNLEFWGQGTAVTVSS VL: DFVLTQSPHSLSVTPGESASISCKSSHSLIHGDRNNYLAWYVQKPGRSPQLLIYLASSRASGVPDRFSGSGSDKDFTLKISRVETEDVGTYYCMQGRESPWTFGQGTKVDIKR"
observable = "neutralization IC80"
test_result = "7.55 µg/mL"

[[record]]
binder = "MS-80 (antibody, V domains shown) VH: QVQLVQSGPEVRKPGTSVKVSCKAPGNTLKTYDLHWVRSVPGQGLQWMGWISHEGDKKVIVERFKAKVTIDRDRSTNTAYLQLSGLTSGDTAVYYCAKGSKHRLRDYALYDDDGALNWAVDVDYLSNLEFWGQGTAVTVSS VL: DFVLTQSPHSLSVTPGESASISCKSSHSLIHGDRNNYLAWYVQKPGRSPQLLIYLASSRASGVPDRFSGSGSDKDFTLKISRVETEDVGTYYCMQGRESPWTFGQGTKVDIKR"
observable = "neutralization IC80"
test_result = "> 25 µg/mL"

[[record]]
binder = "MS-89 (antibody, V domains shown) VH: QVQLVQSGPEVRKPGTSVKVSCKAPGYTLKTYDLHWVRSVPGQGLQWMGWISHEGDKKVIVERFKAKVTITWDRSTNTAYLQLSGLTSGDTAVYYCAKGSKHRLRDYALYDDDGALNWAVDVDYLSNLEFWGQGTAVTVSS VL: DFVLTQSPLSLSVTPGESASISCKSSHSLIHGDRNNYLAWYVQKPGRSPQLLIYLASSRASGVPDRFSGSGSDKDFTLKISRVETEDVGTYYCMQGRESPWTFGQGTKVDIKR"
observable = "neutralization IC80"
test_result = "23.8 µg/mL"

[[record]]
binder = "MS-77 (antibody, V domains shown) VH: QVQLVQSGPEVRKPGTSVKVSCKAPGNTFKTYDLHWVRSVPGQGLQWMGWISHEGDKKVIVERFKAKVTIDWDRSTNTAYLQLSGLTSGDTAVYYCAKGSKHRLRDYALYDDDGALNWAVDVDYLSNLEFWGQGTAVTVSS VL: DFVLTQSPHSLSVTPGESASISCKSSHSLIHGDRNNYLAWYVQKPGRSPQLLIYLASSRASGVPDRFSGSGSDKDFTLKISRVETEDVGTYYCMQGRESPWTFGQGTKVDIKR"
observable = "neutralization IC80"
test_result = "2.71 µg/mL"


Q: Query (binder): MS-85 (antibody, V domains shown) VH: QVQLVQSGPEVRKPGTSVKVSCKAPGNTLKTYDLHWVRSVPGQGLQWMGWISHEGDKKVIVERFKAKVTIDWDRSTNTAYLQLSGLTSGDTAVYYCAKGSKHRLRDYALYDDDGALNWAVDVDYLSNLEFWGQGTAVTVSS VL: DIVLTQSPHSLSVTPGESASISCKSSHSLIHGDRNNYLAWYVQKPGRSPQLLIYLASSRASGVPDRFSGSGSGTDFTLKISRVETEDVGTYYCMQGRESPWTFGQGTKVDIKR ; field requested: neutralization IC80
A: 4.71 µg/mL

Q: So what's the measured neutralization IC80 for this one? MS-72 (antibody, V domains shown) VH: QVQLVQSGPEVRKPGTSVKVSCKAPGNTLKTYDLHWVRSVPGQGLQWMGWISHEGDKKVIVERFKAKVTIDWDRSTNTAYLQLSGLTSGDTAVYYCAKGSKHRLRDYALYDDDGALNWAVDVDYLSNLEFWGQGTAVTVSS VL: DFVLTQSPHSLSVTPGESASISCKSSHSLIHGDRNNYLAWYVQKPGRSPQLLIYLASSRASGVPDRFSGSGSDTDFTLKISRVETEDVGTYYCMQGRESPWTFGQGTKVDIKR
A: 4.53 µg/mL

Q: Which neutralization IC80 is listed for MS-83 (antibody, V domains shown) VH: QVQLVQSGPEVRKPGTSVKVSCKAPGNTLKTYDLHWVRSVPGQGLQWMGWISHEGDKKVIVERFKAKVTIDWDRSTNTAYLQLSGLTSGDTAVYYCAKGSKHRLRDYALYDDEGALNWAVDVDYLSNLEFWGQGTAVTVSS VL: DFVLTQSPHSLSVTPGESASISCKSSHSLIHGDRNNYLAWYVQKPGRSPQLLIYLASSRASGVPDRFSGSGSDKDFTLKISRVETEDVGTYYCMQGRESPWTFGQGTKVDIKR ?
A: 1.04 µg/mL

Q: State the recorded neutralization IC80 for this entry: MS-82 (antibody, V domains shown) VH: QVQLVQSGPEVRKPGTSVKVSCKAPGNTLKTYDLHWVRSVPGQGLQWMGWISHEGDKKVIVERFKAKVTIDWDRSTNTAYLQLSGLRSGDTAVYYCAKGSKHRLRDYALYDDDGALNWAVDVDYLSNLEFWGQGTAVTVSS VL: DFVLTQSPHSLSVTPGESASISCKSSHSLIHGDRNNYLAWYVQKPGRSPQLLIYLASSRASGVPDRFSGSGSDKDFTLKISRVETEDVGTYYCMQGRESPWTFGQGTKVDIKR
A: 1.18 µg/mL
